Cited source for all entries: PubChem BioAssay (NCI)

growth inhibition: recorded values
Test: NCI Yeast Anticancer Drug Screen. Data for the bub3 strain (AID 167)
Conditions: S. cerevisiae bub3 mutant strain, hits give high values; at 50.0 µM unless noted
The panel holds about 79,000 compounds, 15% with a hit somewhere; the sample as a whole holds those more often.
Answer with a number only, understood to be in %.

| Compound | Reported measurement |
| --- | --- |
| CC(=O)Nc1cc(Cl)ccc1[N+](=O)[O-] | 17.4 |
| CN1CCN(C2c3ccccc3OC(C)(C)C2O)CC1 (configuration not stated) | -15.7 |
| Cc1c(Cl)cccc1NC(=O)CCl | -3.85 |
| CCCC(c1ccc(N(C)C)cc1)c1ccc(N(C)C)cc1 | 29.3 |
| NC(N)=NC(N)=Nc1ccc(S(=O)(=O)O)cc1 | -29.6 |

Consider the compound "O=C(NSN1CCOCC1)c1ccccc1" and give its recorded growth inhibition.
2.5

Look up and state reported growth inhibition for NC1=C(O)C(=O)C(c2ccc3c(c2)OCO3)O1 (configuration not stated)
24.8
